Target: Inhibitor of nuclear factor kappa-B kinase subunit beta (Homo sapiens)
Sequence (O14920 whole entry): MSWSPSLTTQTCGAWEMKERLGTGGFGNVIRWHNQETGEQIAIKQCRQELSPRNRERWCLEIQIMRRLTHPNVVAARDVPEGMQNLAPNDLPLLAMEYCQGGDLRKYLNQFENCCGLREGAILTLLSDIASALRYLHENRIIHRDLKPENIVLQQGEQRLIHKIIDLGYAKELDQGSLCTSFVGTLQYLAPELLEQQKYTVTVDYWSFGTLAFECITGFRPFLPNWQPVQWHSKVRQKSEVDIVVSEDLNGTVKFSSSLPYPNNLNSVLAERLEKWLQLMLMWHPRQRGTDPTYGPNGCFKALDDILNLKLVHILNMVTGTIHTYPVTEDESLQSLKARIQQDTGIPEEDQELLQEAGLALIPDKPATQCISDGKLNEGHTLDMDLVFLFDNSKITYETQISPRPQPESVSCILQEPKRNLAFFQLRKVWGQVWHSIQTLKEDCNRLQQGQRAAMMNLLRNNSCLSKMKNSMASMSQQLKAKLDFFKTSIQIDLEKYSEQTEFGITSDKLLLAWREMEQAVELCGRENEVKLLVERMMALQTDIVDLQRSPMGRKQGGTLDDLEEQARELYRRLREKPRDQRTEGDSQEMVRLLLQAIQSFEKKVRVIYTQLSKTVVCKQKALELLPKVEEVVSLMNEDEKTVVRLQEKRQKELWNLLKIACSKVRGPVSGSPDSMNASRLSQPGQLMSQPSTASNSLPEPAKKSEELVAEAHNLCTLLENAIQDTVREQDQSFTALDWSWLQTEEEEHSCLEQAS
Test: Inhibitory activity against IkappaB kinase(IKK) isolated from HeLa cells activated with recombinant […] in an ELISA phosphorylation assay.
outcome-measure: pIC50
One number for each entry, as −log10 of the molar value.

For orientation, consider the following solved cases.
COc1ccc2[nH]c3cnccc3c2c1Br = 6.00
CC(=O)Nc1cc(Cl)cc2c3cc[nH]cc-3nc12 = 6.22
O=C(Nc1cc(Cl)cc2c1[nH]c1cnccc12)c1ccccc1 = 6.15

# context switch: different compound, same pIC50
pIC50 in this record for O=C(Oc1c(Cl)cc2c3cc[nH]cc-3nc2c1Cl)N1CCOCC1 : 5.49

----------
Biological target: Inhibitor of nuclear factor kappa-B kinase subunit beta (Homo sapiens)
Sequence (O14920 whole entry): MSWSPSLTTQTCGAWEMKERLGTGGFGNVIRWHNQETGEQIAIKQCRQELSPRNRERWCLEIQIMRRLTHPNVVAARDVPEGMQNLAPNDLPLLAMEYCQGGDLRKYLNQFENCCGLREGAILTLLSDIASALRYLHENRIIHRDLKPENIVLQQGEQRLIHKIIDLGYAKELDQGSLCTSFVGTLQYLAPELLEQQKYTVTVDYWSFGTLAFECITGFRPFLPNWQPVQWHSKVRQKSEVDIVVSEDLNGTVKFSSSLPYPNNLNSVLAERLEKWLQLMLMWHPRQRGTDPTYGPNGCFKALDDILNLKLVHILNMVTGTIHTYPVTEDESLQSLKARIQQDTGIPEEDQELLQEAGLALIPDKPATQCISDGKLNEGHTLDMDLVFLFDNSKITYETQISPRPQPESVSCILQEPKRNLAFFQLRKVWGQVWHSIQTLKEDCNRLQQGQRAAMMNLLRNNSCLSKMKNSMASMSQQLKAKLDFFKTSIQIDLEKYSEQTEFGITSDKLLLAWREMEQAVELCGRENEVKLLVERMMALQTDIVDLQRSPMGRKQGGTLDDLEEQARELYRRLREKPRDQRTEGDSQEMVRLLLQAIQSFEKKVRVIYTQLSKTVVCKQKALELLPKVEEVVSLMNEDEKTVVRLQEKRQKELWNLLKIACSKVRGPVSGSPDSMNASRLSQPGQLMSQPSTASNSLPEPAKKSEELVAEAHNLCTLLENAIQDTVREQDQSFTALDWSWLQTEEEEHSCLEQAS
Assay: Inhibitory activity against IkappaB kinase(IKK) isolated from HeLa cells activated with recombinant […] in an ELISA phosphorylation assay.
We label by threshold. Values of IC50 strictly beneath 1000 nM are True. Values of 1000 nM and up are False.

Worked set:
O=[N+]([O-])c1cc(Cl)cc2c3cc[nH]cc-3nc12 = False
Fc1ccc2[nH]c3cnccc3c2c1 = False
CCOc1c(Cl)cc2c3cc[nH]cc-3nc2c1Cl = True
Brc1ccc2[nH]c3cnccc3c2c1 = True
COc1ccccc1C(=O)Nc1cc(Cl)cc2c1[nH]c1cnccc12 = False
Clc1ccc2[nH]c3cnccc3c2c1 = True
c1ccc2c(c1)[nH]c1cnccc12 [NORHARMANE] = False
COc1ccc(C(=O)Nc2cc(Cl)cc3c2[nH]c2cnccc23)cc1 = False
COc1c(Cl)cc2c3cc[nH]cc-3nc2c1Cl = True
Clc1cc2c([nH]c3cnccc32)c(Cl)c1OCC1CC1 = True

Please state whether IC50 is below 1000 nM for CNC(=O)Nc1cc(Cl)cc2c3cc[nH]cc-3nc12
False

----------
What IC50 was measured for each of the following?
Target: Inhibitor of nuclear factor kappa-B kinase subunit beta (Homo sapiens)
Sequence (O14920 whole entry): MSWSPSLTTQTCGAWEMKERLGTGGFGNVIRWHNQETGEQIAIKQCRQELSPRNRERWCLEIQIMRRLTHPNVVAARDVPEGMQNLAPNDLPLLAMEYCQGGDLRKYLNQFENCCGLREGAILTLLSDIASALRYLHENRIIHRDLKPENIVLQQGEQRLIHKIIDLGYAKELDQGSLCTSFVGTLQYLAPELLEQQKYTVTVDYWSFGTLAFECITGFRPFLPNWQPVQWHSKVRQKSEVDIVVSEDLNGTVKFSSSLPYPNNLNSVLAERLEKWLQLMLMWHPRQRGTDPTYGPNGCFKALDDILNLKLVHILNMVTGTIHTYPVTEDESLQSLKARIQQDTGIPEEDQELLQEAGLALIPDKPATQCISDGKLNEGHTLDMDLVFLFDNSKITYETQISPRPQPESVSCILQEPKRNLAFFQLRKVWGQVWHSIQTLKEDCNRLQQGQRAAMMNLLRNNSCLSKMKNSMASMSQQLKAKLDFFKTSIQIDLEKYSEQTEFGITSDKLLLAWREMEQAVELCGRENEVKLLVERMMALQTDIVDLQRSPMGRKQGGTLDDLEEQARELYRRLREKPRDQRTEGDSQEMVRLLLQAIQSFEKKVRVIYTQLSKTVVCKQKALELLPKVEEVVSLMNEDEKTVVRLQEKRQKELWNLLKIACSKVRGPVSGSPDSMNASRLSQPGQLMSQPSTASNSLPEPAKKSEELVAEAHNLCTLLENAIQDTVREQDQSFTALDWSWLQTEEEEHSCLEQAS
Assay: Inhibitory activity against IkappaB kinase(IKK) isolated from HeLa cells activated with recombinant […] in an ELISA phosphorylation assay.

COC(=O)Nc1cc(Cl)cc2c3cc[nH]cc-3nc12 = 700 nM
FC(F)(F)c1ccc2[nH]c3cnccc3c2c1 = 1100 nM
O=C(Nc1cc(Cl)cc2c1[nH]c1cnccc12)c1ccncc1 = 300 nM
O=C(Cc1ccccn1)Nc1cc(Cl)cc2c1[nH]c1cnccc12 = 3000 nM
N#Cc1ccc2[nH]c3cnccc3c2c1 = 1100 nM

Respectfully, I request IC50 for each entry included below.
1. COc1cccc(C(=O)Nc2cc(Cl)cc3c2[nH]c2cnccc23)c1
2. COc1ccc2[nH]c3cnccc3c2c1

["600 nM", "4000 nM"]

Respectfully, I request IC50 for each entry included below.
1. Clc1cc(Cl)c2[nH]c3cnccc3c2c1
2. Oc1c(Cl)cc2c3cc[nH]cc-3nc2c1Cl
3. CNc1cc(Cl)cc2c3cc[nH]cc-3nc12
4. Clc1cc2c3cc[nH]cc-3nc2c(Cl)c1OCC1CCCCC1

["200 nM", "11000 nM", "1800 nM", "3000 nM"]

----------
Biological target: NF-kappa-B essential modulator (Homo sapiens)
Sequence (Q9Y6K9 whole entry): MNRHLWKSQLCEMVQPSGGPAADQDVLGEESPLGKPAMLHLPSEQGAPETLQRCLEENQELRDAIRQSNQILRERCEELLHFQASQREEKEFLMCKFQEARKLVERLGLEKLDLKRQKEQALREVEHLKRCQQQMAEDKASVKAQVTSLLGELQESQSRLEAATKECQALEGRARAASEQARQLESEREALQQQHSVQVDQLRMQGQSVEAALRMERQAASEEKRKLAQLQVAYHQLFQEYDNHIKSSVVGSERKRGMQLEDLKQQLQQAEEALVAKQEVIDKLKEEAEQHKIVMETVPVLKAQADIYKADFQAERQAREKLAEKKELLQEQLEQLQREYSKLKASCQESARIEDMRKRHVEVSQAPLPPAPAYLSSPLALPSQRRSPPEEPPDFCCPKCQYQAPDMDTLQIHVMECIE
Assay: Inhibition of GST-IkB phosphorylation by TNF-alpha stimulated HeLa cell lysate (IP-IKKgamma)
outcome-measure: EC50 (nM)
One number for each entry, in nM.

EC50 in this record for O=C(Nc1cc(Cl)cc2c1[nH]c1cnccc12)c1cccnc1 : 150

----------
What IC50 was measured for each of the following?
Biological target: Casein kinase II (Homo sapiens, UniProt P19784+P67870+P68400)
Sequence (P67870 whole entry): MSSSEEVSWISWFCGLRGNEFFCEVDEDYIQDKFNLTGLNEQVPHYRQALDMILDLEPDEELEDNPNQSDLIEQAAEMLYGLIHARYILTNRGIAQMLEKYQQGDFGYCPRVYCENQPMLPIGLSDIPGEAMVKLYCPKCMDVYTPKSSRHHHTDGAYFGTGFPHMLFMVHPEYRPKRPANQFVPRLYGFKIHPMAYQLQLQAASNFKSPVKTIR
Sequence (P68400 whole entry): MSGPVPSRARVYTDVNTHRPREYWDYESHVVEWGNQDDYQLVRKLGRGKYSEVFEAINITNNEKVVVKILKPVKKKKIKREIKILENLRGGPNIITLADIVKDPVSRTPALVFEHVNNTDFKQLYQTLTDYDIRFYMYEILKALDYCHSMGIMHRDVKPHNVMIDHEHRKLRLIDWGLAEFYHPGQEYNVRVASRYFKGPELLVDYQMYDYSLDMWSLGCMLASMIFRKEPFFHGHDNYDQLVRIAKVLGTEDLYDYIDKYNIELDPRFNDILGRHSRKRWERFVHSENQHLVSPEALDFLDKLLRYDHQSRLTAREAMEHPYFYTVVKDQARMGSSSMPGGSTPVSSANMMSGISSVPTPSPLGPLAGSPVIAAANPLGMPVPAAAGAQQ
Sequence (P19784 whole entry): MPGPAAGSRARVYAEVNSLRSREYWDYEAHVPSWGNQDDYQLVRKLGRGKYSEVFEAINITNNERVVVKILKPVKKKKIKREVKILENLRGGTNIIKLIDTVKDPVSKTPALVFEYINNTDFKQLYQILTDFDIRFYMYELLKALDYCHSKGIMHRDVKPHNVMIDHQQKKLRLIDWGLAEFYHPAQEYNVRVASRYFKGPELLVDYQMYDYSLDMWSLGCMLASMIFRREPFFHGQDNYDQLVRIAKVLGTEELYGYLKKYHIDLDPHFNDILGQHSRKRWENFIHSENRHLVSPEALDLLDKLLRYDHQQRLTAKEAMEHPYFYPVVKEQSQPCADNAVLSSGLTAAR
Assay: Inhibitory activity against CKII kinase.

CNC(=O)Nc1cc(Cl)cc2c3cc[nH]cc-3nc12 = > 25 µM
Clc1cc2c3cc[nH]cc-3nc2c(Cl)c1OCC1CCCCC1 = > 25 µM
O=C(Cc1ccccn1)Nc1cc(Cl)cc2c1[nH]c1cnccc12 = > 25 µM
O=[N+]([O-])c1cc(Cl)cc2c3cc[nH]cc-3nc12 = > 25 µM
COc1ccc2[nH]c3cnccc3c2c1Br = 2 µM

# context switch: different compound, same IC50
IC50 in this record for O=S(=O)(Nc1cc(Cl)cc2c1[nH]c1cnccc12)c1ccccc1 : > 25 µM
